- Test system: HIV-1NL4-3
- Test summary: P4-MAGI assay
- Format: cell-based
- Study conditions: Human immunodeficiency virus 1, 24 h, P4 cells, 24 hour incubation, β-galactosidase expression; read-out: P4-MAGI IC50
Quick rule for you: IC50 under 50 nM gets true, anything else gets false.

>>> group_label("C=C(C)[C@@H]1CC[C@]2(C(=O)NCCc3cccc(-c4nnc(Cc5ccc(-c6nn[nH]n6)cc5)o4)c3)CC[C@]3(C)C(CCC4[C@@]5(C)CC[C@H](O)C(C)(C)C5CC[C@]43C)C12 (some centres unmarked) [Example 217]")
"false"
>>> group_label("C=C(C)[C@@H]1CC[C@]2(C(=O)NCc3cccc(C(=O)NCc4cccc(C(=O)O)c4C)c3)CC[C@]3(C)C(CCC4[C@@]5(C)CC[C@H](O)C(C)(C)C5CC[C@]43C)C12 (some centres unmarked) [Example 17]")
"true"
>>> group_label("C=C(C)[C@@H]1CC[C@]2(C(=O)NCc3cccc(C(=O)NCc4ccc(C(=O)O)s4)c3)CC[C@]3(C)C(CCC4[C@@]5(C)CC[C@H](O)C(C)(C)C5CC[C@]43C)C12 (some centres unmarked) [Example 35]")
"false"
>>> group_label("C=C(CSCCO)[C@@H]1CC[C@]2(C(=O)NCCc3cccc(C(=O)NCc4ccc(C(=O)O)cn4)c3)CC[C@]3(C)C(CCC4[C@@]5(C)CC[C@H](O)C(C)(C)C5CC[C@]43C)C12 (some centres unmarked) [Example 267]")
"true"
>>> group_label("C=C(C)[C@@H]1CC[C@]2(C(=O)NCc3cccc(C(=O)NCc4cc(C(=O)O)ccn4)c3)CC[C@]3(C)C(CCC4[C@@]5(C)CC[C@H](O)C(C)(C)C5CC[C@]43C)C12 (some centres unmarked) [Example 31]")
"false"

====

Recorded IC50, one value per entry.
- Tested on: HIV-1NL4-3
- Test summary: P4-MAGI assay
- Assay type: cell-based
- Study conditions: Human immunodeficiency virus 1, 24 h, P4 cells, 24 hour incubation, β-galactosidase expression; read-out: P4-MAGI IC50
- Description: P4 cells were used to test the effects of compounds on virus fusion activity. P4 cells are HIV-1 infectable CD4^+ HeLa cells that bear the bacterial lacZ gene under the control of a minimal HIV-1 LTR. Charneau, et. al., J. Mol. Biol. 241:651-662 (1994). When these cells are infected with HIV-1, β-galactosidase is expressed due to Tat activation of the viral LTR. […]
Measured parameter: IC50 (nM)

>>> data_value("C=C(C)[C@@H]1CC[C@]2(C(=O)NCCc3cccc(C(=O)NCc4ccc(O)c(C(=O)OC)c4)c3)CC[C@]3(C)C(CCC4[C@@]5(C)CC[C@H](O)C(C)(C)C5CC[C@]43C)C12 (stereo partly drawn)")
32.1
>>> data_value("C=C(C)[C@@H]1CC[C@]2(C(=O)NCCc3cccc(C(=O)NCc4ccc(OCCCN5CCNCC5)c(C(=O)O)c4)c3)CC[C@]3(C)C(CCC4[C@@]5(C)CC[C@H](O)C(C)(C)C5CC[C@]43C)C12 (stereo partly drawn)")
27.4
>>> data_value("C=C(C)[C@@H]1CC[C@]2(C(=O)NCCc3cccc(C(=O)NCc4ccc(C(=O)NCCN5CCC(O)CC5)cc4)c3)CC[C@]3(C)C(CCC4[C@@]5(C)CC[C@H](O)C(C)(C)C5CC[C@]43C)C12 (stereo partly drawn)")
28
